Test System: CDK6/cyclinD3(h) (Homo sapiens)
Sequence (Q00534 whole entry): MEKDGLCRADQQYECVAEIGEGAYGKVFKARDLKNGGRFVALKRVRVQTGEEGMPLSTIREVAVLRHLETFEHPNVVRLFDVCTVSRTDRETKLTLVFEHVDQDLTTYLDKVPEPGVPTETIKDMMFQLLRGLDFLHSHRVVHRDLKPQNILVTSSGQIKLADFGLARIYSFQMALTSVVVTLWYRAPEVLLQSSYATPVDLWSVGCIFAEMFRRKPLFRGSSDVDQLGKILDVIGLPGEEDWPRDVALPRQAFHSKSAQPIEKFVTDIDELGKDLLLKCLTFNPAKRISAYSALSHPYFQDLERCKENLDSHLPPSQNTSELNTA
Sequence (P30281 whole entry partner): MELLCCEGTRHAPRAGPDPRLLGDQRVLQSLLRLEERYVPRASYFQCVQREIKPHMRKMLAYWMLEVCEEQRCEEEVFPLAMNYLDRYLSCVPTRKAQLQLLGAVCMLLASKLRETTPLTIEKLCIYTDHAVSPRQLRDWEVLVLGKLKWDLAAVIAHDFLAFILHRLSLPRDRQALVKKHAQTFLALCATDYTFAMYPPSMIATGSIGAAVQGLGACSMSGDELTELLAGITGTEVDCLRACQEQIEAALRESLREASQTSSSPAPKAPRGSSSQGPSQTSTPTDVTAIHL
Assay Info: Merck Millipore KinaseProfiler
Recorded Metric: pIC50
Please express pIC50 as -log10 of the molar concentration.

Ask: So what does the record say about pIC50 for COc1cc(F)ccc1-c1ncnc(Nc2cccc(CS(N)(=O)=O)c2)n1 [BAY‐958] ?
Reply: 5.36

---

Test System: CDK9/CycT1 (Homo sapiens)
Sequence (P50750 whole entry): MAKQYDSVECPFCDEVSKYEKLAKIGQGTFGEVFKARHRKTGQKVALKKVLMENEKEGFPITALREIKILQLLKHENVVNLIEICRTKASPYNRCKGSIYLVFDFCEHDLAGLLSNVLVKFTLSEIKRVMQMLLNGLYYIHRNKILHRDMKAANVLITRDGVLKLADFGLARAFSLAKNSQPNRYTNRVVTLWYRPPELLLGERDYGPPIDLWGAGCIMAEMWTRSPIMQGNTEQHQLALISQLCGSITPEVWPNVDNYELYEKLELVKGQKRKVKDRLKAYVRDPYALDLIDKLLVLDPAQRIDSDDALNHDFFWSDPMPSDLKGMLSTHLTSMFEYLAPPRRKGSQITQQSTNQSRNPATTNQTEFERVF
Sequence (O60563 whole entry partner): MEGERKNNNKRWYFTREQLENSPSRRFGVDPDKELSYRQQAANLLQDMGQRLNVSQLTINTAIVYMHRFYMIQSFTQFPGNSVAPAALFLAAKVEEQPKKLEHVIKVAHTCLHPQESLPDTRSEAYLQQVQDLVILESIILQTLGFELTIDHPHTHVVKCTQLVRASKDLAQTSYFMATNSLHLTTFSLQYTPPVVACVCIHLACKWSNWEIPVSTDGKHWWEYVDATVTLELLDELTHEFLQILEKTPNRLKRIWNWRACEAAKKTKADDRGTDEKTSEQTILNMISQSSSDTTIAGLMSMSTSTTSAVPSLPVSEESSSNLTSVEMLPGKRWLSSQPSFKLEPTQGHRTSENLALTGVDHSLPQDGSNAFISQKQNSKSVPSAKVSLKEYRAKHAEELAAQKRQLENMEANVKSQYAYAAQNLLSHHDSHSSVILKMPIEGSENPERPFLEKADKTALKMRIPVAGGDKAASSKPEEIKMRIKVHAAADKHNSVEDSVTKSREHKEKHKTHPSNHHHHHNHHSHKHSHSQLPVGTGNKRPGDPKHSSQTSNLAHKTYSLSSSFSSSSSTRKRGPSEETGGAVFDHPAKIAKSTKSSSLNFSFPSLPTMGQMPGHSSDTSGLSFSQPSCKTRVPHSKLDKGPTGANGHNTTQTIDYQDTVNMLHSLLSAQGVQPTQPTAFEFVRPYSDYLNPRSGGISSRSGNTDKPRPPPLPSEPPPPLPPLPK
Assay Info: CDK9/CycT1 kinase assay
Format: biochemical
Recorded Metric: pIC50
Answer as the number alone; pIC50 is minus log10 of concentration in mol/L.

COCc1ccccc1-c1ncnc(Nc2cccc(CS(N)(=O)=O)c2)n1 [Compound 20] : 5.77

Ask: Would you mind telling me what pIC50 value was observed for NS(=O)(=O)Cc1cccc(Nc2ncnc(-c3ccc(F)cc3F)n2)c1 [Compound 18] ?
Reply: 6.57

Ask: Need pIC50, item COc1cc(F)ccc1-c1ncnc(Nc2ccc3c(c2)CS(=O)(=O)C3)n1 [Compound 8]
Reply: 7.29

Ask: Request the reported pIC50 associated with NS(=O)(=O)Cc1cccc(Nc2ncnc(-c3ccc(F)cc3OCc3ccccc3)n2)c1 [Compound 23]
Reply: 8.40

Ask: Fill in: pIC50 of NS(=O)(=O)Cc1cccc(Nc2ncnc(-c3ccccc3OC(F)(F)F)n2)c1 [Compound 19] is ___
Reply: 6.21

Ask: Which pIC50 is listed for COc1cc(F)ccc1-c1ncnc(Nc2cccc(CCS(C)(=O)=O)c2)n1 [Compound 6] ?
Reply: 7.31

Ask: Fill in: pIC50 of COc1cc(Cl)ccc1-c1ncnc(Nc2cccc(CS(N)(=O)=O)c2)n1 [Compound 15] is ___
Reply: 7.57

Ask: For the compound shown here, COc1cc(F)ccc1-c1ncnc(Nc2ccc3c(c2)S(=O)(=O)CC3)n1 [Compound 7] , give the reported pIC50.
Reply: 8.15

Ask: Tell me the measured pIC50 of NS(=O)(=O)Cc1cccc(Nc2ncnc(-c3ccc(F)cc3O)n2)c1 [Compound 17] , please.
Reply: 6.89

Ask: Recorded pIC50 for COc1ccccc1-c1ncnc(Nc2cccc(CS(N)(=O)=O)c2)n1 [Compound 14] , please?
Reply: 7.64

Ask: Which value of pIC50 has been reported for COc1cc(F)ccc1-c1ncnc(Nc2cccc(C(F)S(C)(=O)=O)c2)n1 (racemic) [Compound 12] in the records?
Reply: 7.70

Ask: Need pIC50 of COc1cnccc1-c1ncnc(Nc2cccc(CS(N)(=O)=O)c2)n1 [Compound 16] , thanks.
Reply: 5.74

meta.source: paper PMC5698704
